- Test system: Hep-2 cells
- assayProcedure: Cytotoxic effect microscopically visible in the RSV-A2 screening
- Assay type: cell-based, human
- Design: key: -: Cytotoxic effect microscopically visible
- measurementParameters: 33 µM
recordedEndpoint: Cytotoxic effect microscopically visible

Please review the following examples before continuing.
{"compound": "CCN(CC)CCOc1ccc(-c2cc(C(=O)Oc3ccc(S(N)(=O)=O)cc3)c3sc4ccc(OC5CCCCC5)cc4n3c2=O)cc1", "Cytotoxic effect microscopically visible": "-"}
{"compound": "NS(=O)(=O)c1ccc(OC(=O)c2cc(-c3ccccc3)c(=O)n3c2sc2ccc(OC4CCCCC4)cc23)cc1", "Cytotoxic effect microscopically visible": "-"}
{"compound": "O=C(N[C@@H](Cc1ccc(O)cc1)C(=O)O)c1cc(-c2ccc(F)cc2)c(=O)n2c1sc1ccc(OC3CCCCC3)cc12", "Cytotoxic effect microscopically visible": "-"}
{"compound": "CC(C)C(CC(=O)O)NC(=O)c1cc(-c2ccccc2)c(=O)n2c1sc1ccc(OC3CCCCC3)cc12 (stereo not shown)", "Cytotoxic effect microscopically visible": "-"}
{"compound": "O=C(N[C@@H](Cc1ccc(O)cc1)C(=O)O)c1cc(-c2cccs2)c(=O)n2c1sc1ccc(OC3CCCCC3)cc12", "Cytotoxic effect microscopically visible": "-"}
{"compound": "COc1ccc(-c2cc(C(=O)N[C@@H](Cc3ccc(O)cc3)C(=O)O)c3sc4ccc(OC5CCCCC5)cc4n3c2=O)cc1F", "Cytotoxic effect microscopically visible": "-"}
{"compound": "CC(C)(CC(=O)O)NC(=O)c1cc(-c2ccccc2)c(=O)n2c1sc1ccc(OC3CCCCC3)cc12", "Cytotoxic effect microscopically visible": "- ^a"}
{"compound": "NS(=O)(=O)c1ccc(OC(=O)c2ccc(=O)n3c2sc2ccc(OC4CCCCC4)cc23)cc1", "Cytotoxic effect microscopically visible": "-"}
{"compound": "O=C(N[C@@H](Cc1ccccc1)C(=O)O)c1cc(-c2ccccc2)c(=O)n2c1sc1ccc(OC3CCCCC3)cc12", "Cytotoxic effect microscopically visible": "-"}

[in] System Hep-2 cells. Read-out Cytotoxic effect microscopically visible. Item O=C(N[C@@H](Cc1ccc(O)cc1)C(=O)O)c1cc(-c2ccccc2)c(=O)n2c1sc1cc(OC3CCCCC3)ccc12 . Report value.
[out] -

###

- assayProcedure: in vitro
- measurementParameters: human
recordedEndpoint: CC50 (µM)
Note: unit µM is implicit; provide only the numeric part.

[in] Please report CC50 for the following compound: CC(C)(CC(=O)O)NC(=O)c1cc(-c2ccccc2)c(=O)n2c1sc1ccc(OC3CCCCC3)cc12 [Compound 1]
[out] 57.6

###

- assayProcedure: in vitro
- measurementParameters: dog
recordedEndpoint: CC50

[in] Hello, please tell me recorded CC50 for this one: CCOC(=O)C1=C[C@@H](OC(CC)CC)[C@H](NC(C)=O)[C@@H](N)C1 [oseltamivir, reference compound]
[out] > 200 µM

###

- System: IFV-A H1N1
- assayProcedure: Virus inhibition assay (focus reduction), IFV-A H1N1 on MDCK cells
- Assay type: cell-based
- measurementParameters: Influenza A virus, read-out: EC50 (µM) (95% CI)
recordedEndpoint: EC50

Recorded results for 2 compounds are shown here.
{"compound": "CCOC(=O)C1=C[C@@H](OC(CC)CC)[C@H](NC(C)=O)[C@@H](N)C1 [oseltamivir, reference compound]", "measuredTarget": "IFV-A H1N1", "EC50": "0.17 µM"}
{"compound": "O=C(N[C@@H](Cc1ccc(O)cc1)C(=O)O)c1cc(-c2cccs2)c(=O)n2c1sc1ccc(OC3CCCCC3)cc12", "measuredTarget": "IFV-A H1N1", "EC50": "13.7 µM"}

[in] Write down measured EC50 (IFV-A H1N1) for this compound. CC(C)(CC(=O)O)NC(=O)c1cc(-c2ccccc2)c(=O)n2c1sc1ccc(OC3CCCCC3)cc12
[out] 5.49 µM
